The substances listed here are annotated with their pEC50.
Target: hGLP-1R (Homo sapiens)
Sequence (P43220 24-463): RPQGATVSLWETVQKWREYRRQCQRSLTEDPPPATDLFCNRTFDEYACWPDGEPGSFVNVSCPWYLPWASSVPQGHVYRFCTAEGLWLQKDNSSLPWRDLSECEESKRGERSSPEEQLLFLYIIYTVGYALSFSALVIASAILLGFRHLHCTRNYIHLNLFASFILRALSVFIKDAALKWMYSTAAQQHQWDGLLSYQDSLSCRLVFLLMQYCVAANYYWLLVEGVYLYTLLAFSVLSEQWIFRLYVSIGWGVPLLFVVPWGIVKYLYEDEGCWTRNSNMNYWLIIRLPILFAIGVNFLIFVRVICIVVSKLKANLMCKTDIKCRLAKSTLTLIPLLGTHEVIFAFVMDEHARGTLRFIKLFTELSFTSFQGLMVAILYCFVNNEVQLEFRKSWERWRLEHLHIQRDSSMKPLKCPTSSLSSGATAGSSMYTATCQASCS
Test: Functional cAMP activation in the presence of 0.1% casein (no HSA);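 further: intracellular cAMP rise after 30 min at 37 °C read by HTRF, normalized between buffer only (0%) and maximal control ligand (100%), four-parameter variable-slope fit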
Assay type: cell-based
Conditions: in the presence of 0.1% casein (no HSA); geometric mean; read-out: Relative cAMP EC50, hGLP-1R
pEC50: −log10 of the molar value. Starred links: 1 amine or outer side, 2 acyl side, 3 side chain; linkers in the order of their positions; H or OH if unused. Non-standard residues stand in square brackets, D forms with d. Groups on a side chain read outwards from the residue. *: point of attachment. C20 diacid = O=C(O)CCCCCCCCCCCCCCCCCCC(=O)*; C18 diacid = O=C(O)CCCCCCCCCCCCCCCCC(=O)*; γGlu = O=C(O)[C@H](CCC(=O)[*:2])N[*:1]; αMe4Pal = C[C@](N)(Cc1ccncc1)C(=O)O; 4Pal = N[C@@H](Cc1ccncc1)C(=O)O; αMeL = CC(C)C[C@](C)(N)C(=O)O; Orn = NCCC[C@H](N)C(=O)O; AEEA = NCCOCCOCC(=O)O; Aib = CC(C)(N)C(=O)O
PROPERTY: pEC50

1. H-Y[Aib]QGTFTSDFS[Orn][αMeL]LDKK([AEEA-γGlu-C18 diacid])AQ[Aib]AFIEYLLE[dA]GHSSGAPPPSGE-NH2 [Example 207] | 8.36
2. H-Y[Aib]QGTFTSD[4Pal]SQ[αMeL]LDKK([AEEA-γGlu-C18 diacid])AQ[αMe4Pal]AFIEYLIE[Aib]GPSSGAPPPSGSEEE-NH2 [Example 898] | 8.34
3. H-Y[Aib]QGTFTSDFS[Orn][αMeL]LDKK([AEEA-γGlu-C18 diacid])AQ[Aib]AFIEWLLEGGTSSGAPPPSGT-NH2 [Example 177] | 8.53
4. H-Y[Aib]QGTFTSDFS[Orn][αMeL]LDKK([AEEA-γGlu-C18 diacid])AQ[Aib]AFIEYLLEGGPSSGAPPPEGT-NH2 [Example 160] | 8.27
5. H-Y[Aib]QGTFTSDFSK[αMeL]LDKK([AEEA-γGlu-C20 diacid])AQ[Aib]AFIEYLLAGGPSSGAPPPSGE-NH2 [Example 11] | 8.68
